These entries and their values trace back to PubChem BioAssay (NCI).

Test system: MCF7 breast
Test: NCI-60 one-dose screen, 48 h
Details: 10 µM unless noted
Procedure: Growth inhibition of the MCF7 human tumor cell line is measured as a screen for anti-cancer activity. Cells are grown in 96 well plates and exposed to the test compound for 48 hours. Compounds are tested at a single concentration, which is 10^-5 M for most compounds. The reported endpoint is percent growth (GI% or GIPRCNT), where numbers from 0 - 100% represent growth inhibition, and numbers from -100% - 0 represent cell death. For example, a value of 40 represents 60% growth inhibition. […]
Compounds without any hit were thinned out: in the full panel of roughly 83,000, 20% have a hit. Activity calls are given as the source filed them. The calls were made as follows: active = growth percent below 10; inactive = the rest.
Possible outcomes: YES (active), NO (inactive)

# molecule, discrete-label
records = [
    ("N=C(N)c1ccc(-c2ccc(-c3ccc(Cl)cc3Cl)s2)nc1", "YES"),
    ("Nc1c(C(=O)c2ccc(Cl)cc2)sc(Nc2ccccc2)c1-c1nc2ccccc2s1", "NO"),
    ("C=C(c1ccc(OC)c(/C=C/C(=O)c2cc(OC)c(OC)c(OC)c2)c1)c1cc(OC)c(OC)c(OC)c1", "YES"),
    ("CC1=C([Se]CC(OC(=O)[C@@H](CO)NC(=O)OC(C)(C)C)C(=O)NCCCCCC(=O)OCc2ccccc2)C(=O)c2ccccc2C1=O (some centres undefined)", "YES"),
    ("O=C(CSc1nnc(-c2cc(-c3ccc(Cl)cc3)nc3ccccc23)n1-c1ccccc1)Nc1ccc(Cl)cc1", "NO"),
    ("Cc1ccc(S(=O)(=O)c2nc(-c3ccccc3)oc2S(C)=O)cc1 (centres undefined)", "YES"),
    ("CCN(CC)CCN1C(=O)c2c(c(C)c3c(oc4cc(OC)ccc43)c2C)C1=O", "YES"),
    ("CCN(CC)CCCC(Nc1c2ccc(Cl)cc2nc2ccc(OC)cc12)c1ccncc1 (centres undefined)", "NO"),
    ("COC(=O)c1c(C)nc(C)c2c1C(=O)C(Br)=C(NCCCCO)C2=O", "NO"),
]

* * *

system: IGROV1 ovarian; experiment: NCI-60 one-dose screen, 48 h (100 = growth as untreated, 0 = no growth, -100 = all killed); conditions: 10 µM unless noted
This is part of a sample that, as a whole, favours compounds with a hit. Of some 83,000 tested, about 20% had one in any assay.
Labelling field: enter rule met if recorded growth is less than 30%. Enter rule not met if it equals or exceeds that cut-off.

# compound, discrete-label
rows = [
    ("C=C(CNCCO)[C@@H]1CC[C@]2(CO)CC[C@]3(C)[C@H](CC[C@@H]4[C@@]5(C)CCC(NCCO)C(C)(C)[C@@H]5CC[C@]43C)[C@@H]12 (stereo not given in full)", "rule not met"),
    ("CC(C)(C)c1ccc(C(=O)Nc2sc3c(c2C#N)CCC(=O)C3)cc1", "rule met"),
    ("Cn1cc(-c2ccc3c(Nc4cccc(NC(=O)Nc5cccc(F)c5)c4)ncnc3c2)cn1", "rule met"),
    ("CCOC(=O)/C(=C/c1ccc([N+](=O)[O-])cc1)C(=O)c1ccccc1", "rule not met"),
    ("CCCCCCCCCCCCCCCCCCOc1ccccc1CC(=O)OCC[N+]1(C)CCCCC1", "rule met"),
]

* * *

test system: M14 melanoma; experiment: NCI-60 one-dose screen, 48 h (100 = growth as untreated, 0 = no growth, -100 = all killed); settings: 10 µM unless noted
About 83,000 compounds went through this panel and 20% of them were active in at least one assay; those are over-represented in the sample as a whole.

# compound, reading-unit, growth
records = [
    ("CCN1CCN(c2cc(C(=O)Nc3cccc(Nc4ccc5c(OC)cccc5n4)c3)cc(C(F)(F)F)c2)CC1", "%", -41.9),
    ("COc1cc(C(=O)n2nc(NCCCc3ccccc3)c3cc(N)ccc32)cc(OC)c1OC", "%", 93.6),
    ("Cc1ccc(Nc2nc(N)nc(N)c2N=O)cc1Cl", "%", 88.4),
    ("COc1cc2ncnc(Nc3ccc(S(=O)(=O)Nc4cc(C)on4)cc3)c2cc1OCCCN1CCOCC1", "%", 105),
    ("Nc1nc(N)c2c(n1)NC(c1ccc3c(c1)OCO3)CC(c1cccc(Nc3ccncc3)c1)=N2 (stereo not drawn)", "%", 83.5),
    ("COC(=O)CNC(=O)c1ccc(NC(=O)c2[nH]c(C)c(Cl)c2Cl)c(O[C@H]2CCNC2)c1", "%", 107),
    ("Cc1nc2sc(C(=O)Nc3ccccc3)c(N)c2cc1C(O)c1ccccc1 (stereo not drawn)", "%", 20.3),
    ("C#CCOc1ccc(C2=NN(C)C3N=C(Cl)c4ncn(C)c4N23)cc1OCC#C (stereo not drawn)", "%", 104),
    ("CN(C)CCOc1ccc(/C(=C(/CCCCCCCCCC[P+](c2ccccc2)(c2ccccc2)c2ccccc2)c2ccccc2)c2ccccc2)cc1", "%", -79.6),
    ("COc1ccc(NC(=O)c2ccc(NC3=C(c4ccc(Cl)cc4)C(=O)NC3=O)cc2)cc1", "%", 102),
    ("Nc1ncc(-c2ccc3ncnc(N4CCc5cc(F)c(Cl)cc54)c3c2)cc1C=O", "%", 19),
    ("COC12C=C/C(=C(/C(=O)OCc3ccccn3)C(=O)CCCCCCCCC3(OC)C=C/C(=C(/C(=O)OCc4ccccn4)C(=O)CCCCCCCC1)O3)O2", "%", -23.3),
    ("O=C(/C=C/c1ccco1)Nc1ncc(Cc2ccc(F)cc2)s1", "%", 16.7),
    ("C#CCOc1ccc(C2=NN(CCCC)C3N=C(Cl)c4ncn(CCCC)c4N23)cc1OCC#C (stereo not drawn)", "%", 92.2),
    ("OC1CSSC1Cn1cnc2c(Nc3ccc(F)c(Cl)c3)ncnc21 (stereo not drawn)", "%", -65.9),
    ("C=CCn1c(SCC(=O)Nc2ccc(C(=O)/C=C/c3cc(OC)c(OC)c(OC)c3)cc2)nnc1-c1cc(-c2ccc(S(N)(=O)=O)cc2)nc2ccccc12", "%", 95.6),
    ("COc1cccc(/C=C2\\CCc3ccccc3C2=O)c1", "%", 90),
    ("[2H]C([2H])([2H])Oc1c(F)cccc1/C=C/C(=O)/C=C(O)/C=C/c1cccc(F)c1OC([2H])([2H])[2H]", "%", 92.9),
]
